Values compiled from paper PMC6168074.

- SUBJECT_OF_TEST: Damb (DAMB) (Drosophila melanogaster, UniProt Q24563)
- Sequence (Q24563 whole entry): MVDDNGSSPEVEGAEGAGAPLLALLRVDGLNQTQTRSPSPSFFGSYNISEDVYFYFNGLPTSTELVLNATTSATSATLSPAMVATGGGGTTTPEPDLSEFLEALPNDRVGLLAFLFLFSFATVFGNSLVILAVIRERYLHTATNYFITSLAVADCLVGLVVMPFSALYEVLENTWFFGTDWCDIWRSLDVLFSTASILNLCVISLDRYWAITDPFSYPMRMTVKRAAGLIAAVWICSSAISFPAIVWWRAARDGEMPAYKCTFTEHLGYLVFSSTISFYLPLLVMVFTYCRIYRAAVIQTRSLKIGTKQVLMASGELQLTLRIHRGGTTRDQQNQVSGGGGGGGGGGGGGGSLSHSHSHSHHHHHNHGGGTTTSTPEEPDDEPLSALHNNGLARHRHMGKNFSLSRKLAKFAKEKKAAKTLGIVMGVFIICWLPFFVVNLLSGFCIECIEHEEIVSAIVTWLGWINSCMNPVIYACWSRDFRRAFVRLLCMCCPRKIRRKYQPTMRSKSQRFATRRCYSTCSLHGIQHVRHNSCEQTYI
- EXPERIMENT_SUMMARY: real-time BRET G protein activation assay, HEK293T/[…] cells
EXPERIMENTAL_READOUT: EC50 (nM)
The reply should be a number in nM, with the unit left off.

Exercise: # query: EC50 of entry NCCc1ccc(O)c(O)c1 [dopamine]
Key: 56.7
